study_target: Cytochrome P450 3A4 (Homo sapiens)
Sequence (P08684 whole entry): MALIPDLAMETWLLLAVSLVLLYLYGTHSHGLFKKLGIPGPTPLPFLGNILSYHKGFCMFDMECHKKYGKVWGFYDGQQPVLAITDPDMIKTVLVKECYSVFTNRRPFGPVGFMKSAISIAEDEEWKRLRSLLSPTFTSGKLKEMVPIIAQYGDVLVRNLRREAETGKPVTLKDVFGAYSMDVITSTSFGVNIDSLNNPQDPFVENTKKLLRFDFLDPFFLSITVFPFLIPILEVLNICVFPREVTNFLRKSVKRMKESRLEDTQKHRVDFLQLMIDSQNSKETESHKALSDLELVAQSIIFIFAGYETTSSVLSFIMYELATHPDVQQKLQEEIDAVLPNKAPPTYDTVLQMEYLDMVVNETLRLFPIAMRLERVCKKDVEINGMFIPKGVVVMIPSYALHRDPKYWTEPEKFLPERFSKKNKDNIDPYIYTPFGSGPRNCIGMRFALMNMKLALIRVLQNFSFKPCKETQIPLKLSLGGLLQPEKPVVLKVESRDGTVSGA
endpoint_name: IC50 (nM)

Below, each entry is followed by its recorded IC50 result.
structure=Cc1n[nH]c2ncc(-c3cc(OC[C@@H](N)Cc4c[nH]c5ccccc45)c(C#N)nc3-c3ccoc3)nc12 study_target="Cytochrome P450 3A4 (Homo sapiens)" endpoint_name=IC50 units_label=nM result_value=790
structure=Cc1nc(-c2ccoc2)c(-c2cnc3[nH]nc(C)c3n2)cc1OC[C@@H](N)Cc1c[nH]c2ccccc12 study_target="Cytochrome P450 3A4 (Homo sapiens)" endpoint_name=IC50 units_label=nM result_value=630

[P] Cc1occc1-c1nc(N)c(OC[C@@H](N)Cc2ccccc2)cc1-c1cnc2[nH]nc(C)c2n1
[Q] Cc1occc1-c1nc(N)c(OC[C@@H](N)Cc2c[nH]c3ccccc23)cc1-c1ccc2[nH]nc(C)c2c1
Q) Compare the recorded IC50 of P and Q ; state which is larger. Lab log: write the label of the selected item as the result.
A) P
(P: 3200 nM, Q: 100 nM)

====

protocol_description: Clearance in monkey at 3.1 mg, iv
Assay type: ADME, organism-based, Macaca mulatta
measurement_parameters: rhesus monkey, in vivo
endpoint_name: clearance (mL/min/kg)
Express your answer in mL/min/kg, writing the number without its unit.

Q) Reported clearance, molecule `Cc1n[nH]c2ncc(-c3cc(OC[C@@H](N)Cc4c[nH]c5ccccc45)cnc3-c3ccoc3)nc12` : ____
A) 39.1

====

protocol_description: Clearance in dog at 3.1 mg, iv
Format: ADME, organism-based, Canis lupus familiaris
measurement_parameters: in vivo
endpoint_name: clearance (mL/min/kg)
# number only, unit mL/min/kg dropped from output

Q) Request the reported clearance associated with `Cc1occc1-c1nc(N)c(OC[C@@H](N)Cc2c[nH]c3ccccc23)cc1-c1cnc2[nH]nc(C)c2n1`
A) 25.3

====

pIC50: −log10 of the molar value.
What follows is a record of pIC50 for RAC-gamma serine/threonine-protein kinase (Homo sapiens).
endpoint_name: pIC50

[P] Cc1occc1-c1nc(N)c(OC[C@@H](N)Cc2c[nH]c3ccccc23)cc1-c1cnc2[nH]nc(C)c2c1
[Q] Cc1occc1-c1nc(N)c(OC[C@@H](N)Cc2ccccc2)cc1-c1cnc2[nH]nc(C)c2n1
Q) Pick one: P or Q . Which has the bigger pIC50 number? Refer to your chosen item by its label in the answer.
A) P

[a] Cc1occc1-c1nc(N)c(OC[C@@H](N)Cc2c[nH]c3ccccc23)cc1-c1cc2c(C)n[nH]c2cn1
[b] Cc1nc(-c2ccoc2)c(-c2cnc3[nH]nc(C)c3n2)cc1OC[C@@H](N)Cc1c[nH]c2ccccc12
Q) Determine, for a and b , which has the greater value of pIC50. Respond using the label that marks the chosen record.
A) a
(a: 8.52, b: 8.00)

====

Quick record: pIC50, RAC-alpha serine/threonine-protein kinase (Homo sapiens, UniProt P31749).
pIC50: −log10 of the molar value.
endpoint_name: pIC50

structure=Cc1occc1-c1nc(N)c(OC[C@@H](N)Cc2c[nH]c3ccccc23)cc1-c1cnc2[nH]nc(C)c2n1 result_value=9.00

[1] Cc1occc1-c1nc(N)c(OC[C@@H](N)Cc2c(Cl)[nH]c3ccccc23)cc1-c1cnc2[nH]nc(C)c2n1
[2] Cc1nc(-c2ccoc2)c(-c2cnc3[nH]nc(C)c3n2)cc1OC[C@@H](N)Cc1c[nH]c2ccccc12
Q) Lower value of pIC50 belongs to which: 1 or 2 ? Label of pick, please.
A) 2
